Target: T1, human bone morphogenic protein 4 (BMP4) (human, UniProt P12644 293-408)
T1 construct: Bought recombinant human BMP4 (R&D Systems); also called recombinant human BMP4
T1 sequence: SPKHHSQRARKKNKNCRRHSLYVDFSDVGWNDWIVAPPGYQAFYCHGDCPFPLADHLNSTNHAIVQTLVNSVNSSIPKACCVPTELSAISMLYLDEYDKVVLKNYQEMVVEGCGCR
Assay: SPR (Biacore); mAb captured via anti-human Fc, BMP flowed at 10 nM
Would you kindly list koff for each of these binders?

Query: koff; subject: 10F6 human monoclonal antibody (antibody, V domains shown, Human IgG from a HuMAb/KM mouse hybridoma) VH: QVQLVESGGGVVQPGRSLRLSCAASGFTFRSYGIHWVRQAPGKGLEWVAVIWYDGSHKYYADSVKGRFTISRDNSKNTLDLQMNSLRAEDTAVYYCVRGSSNWYFDYWGQGTLVTVSS VL: DIQMTQSPSSLSASVGDRVTITCRASQGISSWLAWYQQKPEKAPKSLIYAASSLQSGVPSRFSGSGSGTDFTLTISSLQPEDFATYYCQQYNSYPLTFGGGTKVEIK
0.00197 s⁻¹

Query: koff; subject: 16B7 human monoclonal antibody (antibody, V domains shown, Human IgG from a HuMAb/KM mouse hybridoma) VH: QVQLVESGGGVVQPGRSLRLSCAASGFTFSNYGIHWVRQAPGKGLEWVAVIWYDGSHKYYADSMKGRFTISRDNSKNTLDLQMNSLRAEDTAVYYCARGSSSWYFDLWGRGTLVTVSS VL: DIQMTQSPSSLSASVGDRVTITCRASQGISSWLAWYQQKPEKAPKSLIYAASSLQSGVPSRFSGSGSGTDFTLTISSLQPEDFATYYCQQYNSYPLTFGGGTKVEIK
6.12e-05 s⁻¹

Query: koff; subject: 6H4 human monoclonal antibody (antibody, V domains shown, Human IgG from a HuMAb/KM mouse hybridoma) VH: QVHLQQWGAGLLKPSETLSLTCAVYGGSFSGYYWSWIRQPPGKGLEWIGEINHSGSTNYNPSLKSRVTISVDTSKNQFSLKLSSVTAADTAVYYCAREYYYGSESEYFQHWGQGTLVTVSS VL: EIVLTQSPATLSLSPGERATLSCRASQSVSSYLAWYQQKPGQAPRLLIYDASNRATGIPARFSGSGSGTDFTLTISSLEPEDFAVYYCQQRSNWPHTFGQGTKLEIK
0.000497 s⁻¹
